- Test system: Tov-21-G
- experiment-description: Primary qHTS to identify gynecologic anti-cancer compounds using libraries of approved drugs and bioactive compounds (AID 1345084); also: nearly all actives have a fitted effect of over 55% in size
- stated-conditions: Gynecologic cancer cell panel viability, ATPlite luminescence, 48 h; series mostly up to 57.5 µM
Records with an inconclusive call do not appear. Active and inactive are the calls of the source. Calls follow the shape of the dose curve; as a rule, active = well fitted cell-killing curve with a large enough effect; inconclusive = small, poorly fitted or top-dose-only effect, or effect the other way; inactive = flat fitted curve, though single readings scatter.
Labels: label 1 for active, label 0 for inactive

compound | class-assignment
COc1ccc(CC2C(=O)NC(C)C(=O)N(C)C3Cc4ccc(cc4)Oc4cc(ccc4OC4OC(CO)C(O)C(O)C4O)CC(C(=O)NC(C)C(=O)NC(C)C(=O)N2C)N(C)C3=O)cc1 (centres undefined) | label 1
C[C@@H]1CN(Cc2ncccn2)C[C@H]1c1nc2c(cnn2C2CCOCC2)c(=O)[nH]1 | label 0
CCCNc1ccc2ncc(-c3ccc4[nH]ncc4c3)n2n1 | label 1
OC[C@H]1O[C@@H](OCCc2ccc(O)cc2)[C@H](O[C@@H]2OC[C@](O)(CO)[C@H]2O)[C@@H](O)[C@@H]1O | label 0

====

- experiment-description: qHTS to identify inhibitors of the type 1 interferon - major histocompatibility complex class I in skeletal muscle: primary screen against the NCATS Mechanism Interrogation Plate v5.0 (MIPE) Libary (AID 1347411); also: nearly all actives have a fitted effect of over 65% in size
- stated-conditions: iHSKM cells + IFN-b, HiBiT-tagged MHC-I luminescence, 24 h; series mostly up to 45.8 µM
Results filed as inconclusive are left out. Activity calls are given as the source filed them. Calls come from the whole dose curve; as a rule, active = well fitted inhibition curve with a large enough effect; inconclusive = small, poorly fitted or top-dose-only effect; inactive = no such curve, though single readings can be large or run the other way.
Labels: T for active, F for inactive

item-smiles | class-assignment
CC#CC(=O)N1CCC[C@H]1c1nc(-c2ccc(C(=O)Nc3ccccn3)cc2)c2c(N)nccn12 | F
CCNCc1nc2c(N)nc3ccccc3c2n1CC(C)(C)O | F
CO[C@H]1C[C@@H]2CC[C@@H](C)[C@@](O)(O2)C(=O)C(=O)N2CCCC[C@H]2C(=O)O[C@H]([C@H](C)C[C@@H]2CC[C@@H](OP(C)(C)=O)[C@H](OC)C2)CC(=O)[C@H](C)/C=C(\C)[C@@H](O)[C@@H](OC)C(=O)[C@H](C)C[C@H](C)/C=C/C=C/C=C/1C | T

====

- target-of-assay: Calcium and integrin-binding protein 1 (Homo sapiens) (UniProt Q99828)
- Sequence (Q99828 whole entry, looked up): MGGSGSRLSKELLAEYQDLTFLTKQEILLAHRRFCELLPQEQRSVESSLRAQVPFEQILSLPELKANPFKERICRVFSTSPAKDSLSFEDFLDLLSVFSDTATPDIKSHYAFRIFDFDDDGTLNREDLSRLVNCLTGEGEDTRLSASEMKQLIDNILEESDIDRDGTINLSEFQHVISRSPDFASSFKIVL
- experiment-description: Primary qHTS for Identification of Calcium Integrin Binding Protein 1 (CIB1) Competitor (AID 1508620);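 also: GST tagged CIB1 binding a fluorescein labelled alphaIIb integrin peptide tracer; top concentration of the series differs between compounds; % is scaled to controls: 0 for no effect and ±100 for the full control effect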
- stated-conditions: CIB1-GST / FITC-alphaIIb peptide fluorescence polarization; series mostly up to 114 µM
Inconclusive results are not listed. Calls of active or inactive are those of the source. Calls come from the whole dose curve; as a rule, active = well fitted inhibition curve with a large enough effect; inconclusive = small, poorly fitted or top-dose-only effect; inactive = flat fitted curve, though single readings scatter. Where a SMILES comes first, the peptide text is derived from it. Bridges are numbered along the chain shown (N, C = ends). [ ]: non-standard residue; d: D form. NMeY = CN[CH](Cc1ccc(O)cc1)C(=O)O
quantity-kind: activity change, negative = inhibition

molecule | quantity-kind | measurement
COC(=O)C[C@H]1C(C)(C)[C@H](OC(=O)C(C)C)[C@@]2(O)C(=O)[C@]1(C)C1CC[C@]3(C)C(CC(=O)O[C@H]3c3ccoc3)[C@]13O[C@@H]32 (some centres not stated) | activity change, negative = inhibition | inactive
COC(=O)[C@@H](O)[C@H]1[C@@]2(C)CC3(O)[C@@H](C(=O)[C@H]2O)[C@]24O[C@]25CC(=O)O[C@@H](c2ccoc2)[C@]5(C)CCC4[C@]13C (some centres not stated) | activity change, negative = inhibition | inactive
O=C(O)C(O[C@@H]1O[C@H](CO[C@@H]2O[C@H](CO)[C@@H](O)[C@H](O)[C@H]2O)[C@@H](O)[C@H](O)[C@H]1O)c1ccccc1 (some centres not stated) | activity change, negative = inhibition | inactive
CCN(CC)c1ccc2c(O)c(C=Nc3ccc(CC(=O)O)c(-c4c5c(nc6ccccc46)CCC(C(=O)NN)C5)c3)c(=O)oc2c1 (configuration not stated) | activity change, negative = inhibition | inactive
CN(CCc1ccc(Nc2ncc(-c3cccnc3)s2)cc1)Cc1ccccc1 | activity change, negative = inhibition | inactive
CC1(C)[C@@H](O)CC[C@]2(C)[C@H]3CC=C4[C@@H]5C[C@](C)(C(=O)O)CC[C@]5(C)CC[C@@]4(C)[C@]3(C)CC[C@@H]12 | activity change, negative = inhibition | inactive
CC1(C)CC[C@]2(C(=O)O[C@@H]3O[C@H](CO)[C@@H](O)[C@H](O)[C@H]3O)CC[C@]3(C)C(=CCC4[C@@]5(C)C[C@@H](O)[C@H](O)C(C)(C)C5[C@H](O)C[C@]43C)[C@@H]2[C@@H]1O (some centres not stated) | activity change, negative = inhibition | inactive
CC1=C(C(=O)O)/C(=C/CO[C@@H]2O[C@H](COC(=O)/C=C/c3ccc(O)cc3)[C@@H](O)[C@H](O)[C@H]2O)C(O)C1 (some centres not stated) | activity change, negative = inhibition | inactive
CC1(C)CC[C@]2(C(=O)O[C@@H]3O[C@H](CO[C@@H]4O[C@H](CO)[C@@H](O)[C@H](O)[C@H]4O[C@@H]4O[C@H](CO)[C@H](O)[C@H](O)[C@H]4O)[C@@H](O)[C@H](O[C@@H]4O[C@H](CO)[C@@H](O)[C@H](O)[C@H]4O)[C@H]3O)CC[C@]3(C)C(=CCC4[C@@]5(C)CC[C@H](O[C@@H]6OC[C@@H](O)[C@H](O)[C@H]6O)[C@@](C)(C(=O)O)C5CC[C@]43C)[C@@H]2C1 (some centres not stated) | activity change, negative = inhibition | 0.475% [at 12.4 µM] (inactive)
C=C1C(O)CC2C(C(=O)O)=COC(O[C@@H]3O[C@H](COC(=O)/C=C/c4ccc(O)cc4)[C@@H](O)[C@H](O)[C@H]3O)C12 (some centres not stated) | activity change, negative = inhibition | inactive
CC1OC(OC2CCC3(C)C(CCC4(C)C3CC=C3C5CC(C)(C)CCC5(C(=O)OC5OC(CO)C(O)C(O)C5O)CCC34C(=O)O)C2(C)C)C(O)C(O)C1O (configuration not stated) | activity change, negative = inhibition | inactive
COc1ccc(C2(O)CCC(N3CC[C@@H](NC(=O)CNC(=O)c4cccc(C(F)(F)F)c4)C3)CC2)cn1 (some centres not stated) | activity change, negative = inhibition | inactive
O=C(NOCC(O)CO)c1ccc(F)c(F)c1Nc1ccc(I)cc1F (configuration not stated) | activity change, negative = inhibition | inactive
CC(C)c1cc(C(=O)N2CC[C@H](NC(=O)C3CC3)C2)n[nH]1 | activity change, negative = inhibition | inactive
COc1c2c(c(C)c3c1C(=O)OC3)OC1(C)CC(O)C34OC(OC)(CC(OC(C)=O)C3(C)C1C2)OC4(C)C (configuration not stated) | activity change, negative = inhibition | inactive
COc1cccc2cc3c(c(O[C@@H]4O[C@H](CO[C@@H]5O[C@H](CO)[C@@H](O)[C@H](O)[C@H]5O)[C@@H](O)[C@H](O)[C@H]4O)c12)C(C)OC3=O (some centres not stated) | activity change, negative = inhibition | inactive
CC(C)(C#N)c1ccc(N2C(=O)OCc3cnc4ccc(-c5cnc6ccccc6c5)cc4c32)cc1 | activity change, negative = inhibition | inactive
CC(=O)NC[C@H]1CN(c2ccc(N3CCN(C(=O)CO)CC3)c(F)c2)C(=O)O1 | activity change, negative = inhibition | inactive
C=C1C[C@]23C[C@H]1CC[C@H]2[C@]1(C)CCC[C@@](C)(C(=O)O)[C@H]1[C@@H]3C(=O)O | activity change, negative = inhibition | inactive
N#Cc1ccc(-c2cnc3[nH]cc(NC(=O)c4cccnc4)c3c2)cc1 | activity change, negative = inhibition | inactive
CN(C)CC1CCOC1(c1ccccc1)c1ccccc1 (configuration not stated) | activity change, negative = inhibition | inactive
CC(=O)c1ccc2c(c1)C(O)C(C(C)(C)O)O2 (configuration not stated) | activity change, negative = inhibition | inactive
COc1cc2c(cc1O)[C@H](c1ccc(O[C@@H]3O[C@H](CO)[C@@H](O)[C@H](O)[C@H]3O)c(OC)c1)[C@@H](CO)[C@](O)(CO)C2 | activity change, negative = inhibition | inactive
CC(C)[C@H]1CC[C@@]2(O)COC(=O)[C@H]2[C@@H]1/C=C(\CO)C(=O)O | activity change, negative = inhibition | inactive
CC1=CC2/C=C(\C)CC[C@@H](O)[C@@H](O)[C@@H]3O[C@@H]3C(=O)[C@]23C(=O)N[C@@H](CC(C)C)[C@@H]3[C@@H]1C (some centres not stated) | activity change, negative = inhibition | inactive
CCC(C)C1NC(=O)C2CCCN2C(=O)C(NC(C)=O)C(C)OC(=O)C(Cc2ccc(OC)cc2)N(C)C(=O)C2CCCN2C(=O)C(C(C)C)NC1=O (configuration not stated) (Ac-TPIVP[NMeY](Me); ester 1-C; configuration not given here) | activity change, negative = inhibition | inactive
COC(=O)[C@@]1(c2ccc(C)cc2)C[C@H]1CN1CCC(O)(c2ccccc2)CC1 | activity change, negative = inhibition | inactive
